Where do these numbers come from? They come from patent US20240294541A1.

Tested on: Hs294T (human melanoma)
experimental.details: cells
Type: cell-based
assay.setup: selectivity coefficient vs normal BALB/3T3 cells
readout.label: Hs294T SI

CC[C@@H](C(=O)[C@@H](C)[C@@H](O)[C@H](C)[C@@H]1O[C@@H]([C@@H](CC)C(=O)O)CC[C@@H]1C)[C@H]1O[C@]2(C=C[C@@H](NC(=O)Nc3cc(C(F)(F)F)cc(C(F)(F)F)c3)[C@]3(CC[C@@](C)([C@H]4CC[C@](O)(CC)[C@H](C)O4)O3)O2)[C@H](C)C[C@@H]1C [FLC-00344-1 Na]    0.4
CCCNC(=S)N[C@@H]1C=C[C@]2(O[C@H]([C@@H](CC)C(=O)[C@@H](C)[C@@H](O)[C@H](C)[C@@H]3O[C@@H]([C@@H](CC)C(=O)O)CC[C@@H]3C)[C@@H](C)C[C@H]2C)O[C@@]12CC[C@@](C)([C@H]1CC[C@](O)(CC)[C@H](C)O1)O2 [FLC-00349-1]    0.6
